Target: FGFR1 (UniProt P11362)
Sequence (P11362 whole entry, looked up): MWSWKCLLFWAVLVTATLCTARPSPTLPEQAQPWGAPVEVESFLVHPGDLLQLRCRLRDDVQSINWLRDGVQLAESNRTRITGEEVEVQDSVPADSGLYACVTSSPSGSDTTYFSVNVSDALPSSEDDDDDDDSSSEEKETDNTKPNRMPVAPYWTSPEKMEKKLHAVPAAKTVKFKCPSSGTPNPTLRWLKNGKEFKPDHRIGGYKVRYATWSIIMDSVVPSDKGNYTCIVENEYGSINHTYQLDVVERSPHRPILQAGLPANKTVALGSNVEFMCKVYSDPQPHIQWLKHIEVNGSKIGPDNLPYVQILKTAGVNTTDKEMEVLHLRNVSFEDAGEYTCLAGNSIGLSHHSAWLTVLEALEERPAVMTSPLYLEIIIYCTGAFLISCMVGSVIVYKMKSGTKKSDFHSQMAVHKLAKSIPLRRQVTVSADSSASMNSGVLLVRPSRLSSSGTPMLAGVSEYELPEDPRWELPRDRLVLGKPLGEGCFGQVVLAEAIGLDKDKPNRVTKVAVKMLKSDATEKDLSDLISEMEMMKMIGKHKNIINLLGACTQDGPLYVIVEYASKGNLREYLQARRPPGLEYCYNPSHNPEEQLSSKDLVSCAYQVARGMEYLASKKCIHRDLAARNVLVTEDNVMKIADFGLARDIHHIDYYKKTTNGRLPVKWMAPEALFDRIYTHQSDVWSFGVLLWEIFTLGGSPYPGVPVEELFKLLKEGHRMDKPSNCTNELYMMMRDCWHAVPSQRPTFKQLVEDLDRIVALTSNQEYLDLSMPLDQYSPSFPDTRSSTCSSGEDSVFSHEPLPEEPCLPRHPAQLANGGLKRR
Experiment: phosphorylation enrichment, bacterial display (enrichment ratio); higher = better substrate or ligand; peptides without Tyr show the background;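 note: 11-residue human phosphosite peptides and single-mutation variants displayed on the E. coli surface, counted by deep sequencing, each peptide's frequency after selection divided by its frequency in the unselected input library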;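 note: frequency after pTyr selection over input frequency; kinase dosed for 20-30% of maximal phosphorylation in three min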
assay-endpoint: phosphorylation enrichment
Number only, no unit.

These solved cases illustrate the format of a correct answer.
| biopolymer-sequence | meas-value |
| --- | --- |
| KKGMIYGGGGG [PSME1_Y249_T244K] | 0.407 |
| LIEQAYDNPHE [PRPF8_Y871] | 0.566 |
| FKNGDYSEVMK [LCT_Y1638_N1639S] | 0.57 |
| KALKQYRAGPS [DDX27_Y763] | 0.355 |
| YETVKYFNNER [ABCB7_Y345] | 1.95 |
| QQLQGYVPSNF [FRK_Y99_I100V_YF] | 0.475 |

Now, please, on to the next sequence.
Exam item: Item EPVSDYINADI [PTPN11_Y304_N308D] has what recorded phosphorylation enrichment?
Marked response: 0.77

###

System: AncSZ
Assay: phosphorylation enrichment, bacterial display (enrichment ratio); higher = better substrate or ligand; peptides without Tyr show the background
assay-endpoint: phosphorylation enrichment
Number only, no unit.

These solved cases illustrate the format of a correct answer.
| biopolymer-sequence | phosphorylation enrichment |
| --- | --- |
| LPEENYQVLRF [ARHGAP1_Y365] | 1.43 |
| LGIDRYHAIVF [NPSR1_Y147_S143G_YF] | 2.59 |

Exam item: Item STGRSYAGVAV [KLHL3_Y577] has what recorded phosphorylation enrichment?
Marked response: 0.43

Exam item: Item QEGPEYWDQET [HLA-A_Y83] has what recorded phosphorylation enrichment?
Marked response: 1.82

Exam item: Item RRVEPYGENFN [APOA4_Y310] has what recorded phosphorylation enrichment?
Marked response: 1.23

Exam item: Item SMEGLYSSTQD [CLIC5_Y111] has what recorded phosphorylation enrichment?
Marked response: 1.57

Exam item: Item KFMVGYEMLAK [GALT_Y339_Q344K] has what recorded phosphorylation enrichment?
Marked response: 0.914

Exam item: Item KFVKMYDNHQL [MYO9A_Y203_YF] has what recorded phosphorylation enrichment?
Marked response: 0.586

Exam item: Item PLLLSYYLIKW [NUP160_Y773] has what recorded phosphorylation enrichment?
Marked response: 1.33

Exam item: Item EQKKFYNAMKK [SCN5A_Y1495_YF] has what recorded phosphorylation enrichment?
Marked response: 0.484

Exam item: Item QNTVDYYDLYG [PTPN11_Y62_G60V] has what recorded phosphorylation enrichment?
Marked response: 2.72

Exam item: Item YETVKYFNNER [ABCB7_Y345] has what recorded phosphorylation enrichment?
Marked response: 0.881

Exam item: Item DTKDDYNALSV [IL17RB_Y457] has what recorded phosphorylation enrichment?
Marked response: 1.08

Exam item: Item DRLASYLDKLR [KRT12_Y139_V143L] has what recorded phosphorylation enrichment?
Marked response: 0.921

###

Test system: Fer (mouse)
Experiment: phosphorylation enrichment, bacterial display (enrichment ratio); higher = better substrate or ligand; peptides without Tyr show the background
assay-endpoint: phosphorylation enrichment
Number only, no unit.

These solved cases illustrate the format of a correct answer.
| biopolymer-sequence | meas-value |
| --- | --- |
| PSPTKYSLSPS [RANBP2_Y785_R784K] | 0.534 |
| VNFDYYTVNLG [GFPT1_Y367_D366Y] | 6.01 |

Exam item: Item GLDSSYLLRDS [SH2D1A_Y29_G27S] has what recorded phosphorylation enrichment?
Marked response: 0.305

Exam item: Item RRIHSYRGQLW [VHL_Y112_H115Q] has what recorded phosphorylation enrichment?
Marked response: 0.617

Exam item: Item RDEHGYISRCF [HSPB1_Y133_Q128R] has what recorded phosphorylation enrichment?
Marked response: 0.734

Exam item: Item FIILIYAMKKK [SLCO1B1_Y645_YF] has what recorded phosphorylation enrichment?
Marked response: 0.354

Exam item: Item FASTGYGIAIQ [GRIN2B_Y762] has what recorded phosphorylation enrichment?
Marked response: 0.375

###

System: c-Abl (mouse)
Test: phosphorylation enrichment, bacterial display (enrichment ratio); higher = better substrate or ligand; peptides without Tyr show the background
assay-endpoint: phosphorylation enrichment
Number only, no unit.

These solved cases illustrate the format of a correct answer.
| biopolymer-sequence | test-target | phosphorylation enrichment |
| --- | --- | --- |
| FFCRWYRNQKS [EREG_Y144_R147Q_YF] | c-Abl (mouse) | 0.855 |
| RFLRGYRQDAY [HLA-A_Y137] | c-Abl (mouse) | 0.922 |
| QLQVFYATRDQ [MIPEP_Y579_L582R] | c-Abl (mouse) | 1.2 |
| PLDGEYFTRQI [TP53_Y327_L330R] | c-Abl (mouse) | 1.2 |
| PKEEPYQMQEK [SLC5A3_Y565] | c-Abl (mouse) | 0.943 |

Exam item: What is its phosphorylation enrichment for c-Abl (mouse)? Entry: VRVQLYDPDFM [CYP4A22_Y100_Y104F]
Marked response: 0.734

Exam item: What is its phosphorylation enrichment for c-Abl (mouse)? Entry: GDPTEYFITAI [IGSF22_Y501_S503I_YF]
Marked response: 0.911

Exam item: What is its phosphorylation enrichment for c-Abl (mouse)? Entry: SVCPDYDLCSI [SQSTM1_Y148_V153I]
Marked response: 0.876

Exam item: What is its phosphorylation enrichment for c-Abl (mouse)? Entry: SVGVPYEPPEV [TP53_Y220_V217G]
Marked response: 0.881

Exam item: What is its phosphorylation enrichment for c-Abl (mouse)? Entry: SSMNDYNPLEK [MYOC_Y479_I477N]
Marked response: 0.625

Exam item: What is its phosphorylation enrichment for c-Abl (mouse)? Entry: CEHRGSLFLAI [TEK_Y897_Y897S_YF]
Marked response: 0.944

Exam item: What is its phosphorylation enrichment for c-Abl (mouse)? Entry: RRIHSYRGRLW [VHL_Y112_H115R]
Marked response: 0.836

Exam item: What is its phosphorylation enrichment for c-Abl (mouse)? Entry: GTFVIYVRFSG [FLNB_Y1687_G1691S_YF]
Marked response: 0.979

###

Target: FGFR1 (UniProt P11362)
Assay: phosphorylation enrichment, bacterial display (enrichment ratio); higher = better substrate or ligand; peptides without Tyr show the background
assay-endpoint: phosphorylation enrichment
Number only, no unit.

| biopolymer-sequence | meas-value |
| --- | --- |
| QTEAQYRFIYM [PTPN11_Y511] | 1.65 |
| KYLENYLNRLL [PLD2_Y169] | 0.459 |
| RGRSTCYWPRP [GAGE12J_Y9_Y9C] | 0.704 |

Exam item: What is its phosphorylation enrichment for FGFR1 (UniProt P11362)? Entry: SGPRCYTIAAL [TTR_Y125_R124C]
Marked response: 0.392

Exam item: What is its phosphorylation enrichment for FGFR1 (UniProt P11362)? Entry: VNKIFYPDFIV [LIG3_Y768_YF]
Marked response: 0.49

Exam item: What is its phosphorylation enrichment for FGFR1 (UniProt P11362)? Entry: ACEVLYNIVFM [NCF2_Y125_A128V]
Marked response: 1.8

###

Target: EPHB2 (UniProt P29323)
Sequence (P29323 whole entry, looked up): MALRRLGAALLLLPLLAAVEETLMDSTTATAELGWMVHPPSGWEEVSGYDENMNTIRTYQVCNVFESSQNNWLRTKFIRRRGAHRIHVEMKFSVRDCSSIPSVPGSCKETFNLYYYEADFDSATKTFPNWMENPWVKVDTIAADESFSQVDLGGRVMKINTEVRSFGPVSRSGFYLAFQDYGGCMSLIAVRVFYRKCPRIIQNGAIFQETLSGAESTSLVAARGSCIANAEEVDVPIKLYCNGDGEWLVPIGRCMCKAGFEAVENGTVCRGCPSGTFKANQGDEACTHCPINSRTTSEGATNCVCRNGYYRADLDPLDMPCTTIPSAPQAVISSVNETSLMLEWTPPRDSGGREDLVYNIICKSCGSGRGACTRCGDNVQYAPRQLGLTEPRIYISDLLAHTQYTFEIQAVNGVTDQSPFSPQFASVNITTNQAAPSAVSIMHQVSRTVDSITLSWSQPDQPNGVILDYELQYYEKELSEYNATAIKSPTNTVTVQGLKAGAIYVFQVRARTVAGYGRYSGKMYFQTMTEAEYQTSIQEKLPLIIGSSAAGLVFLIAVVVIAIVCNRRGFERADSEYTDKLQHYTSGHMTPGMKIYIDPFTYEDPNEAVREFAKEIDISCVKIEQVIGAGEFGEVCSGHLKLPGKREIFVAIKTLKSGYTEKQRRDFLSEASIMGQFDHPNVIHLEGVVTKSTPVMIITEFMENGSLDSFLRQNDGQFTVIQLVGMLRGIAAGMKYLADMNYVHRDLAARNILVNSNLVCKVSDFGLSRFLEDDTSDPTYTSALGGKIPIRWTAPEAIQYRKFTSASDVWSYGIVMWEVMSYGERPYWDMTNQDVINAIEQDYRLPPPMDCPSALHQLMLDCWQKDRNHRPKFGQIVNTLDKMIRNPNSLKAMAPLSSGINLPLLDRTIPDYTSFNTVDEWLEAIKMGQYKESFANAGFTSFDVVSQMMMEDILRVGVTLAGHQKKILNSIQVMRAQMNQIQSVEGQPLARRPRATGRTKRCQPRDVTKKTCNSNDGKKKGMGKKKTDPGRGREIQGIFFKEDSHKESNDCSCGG
Assay: phosphorylation enrichment, bacterial display (enrichment ratio); higher = better substrate or ligand; peptides without Tyr show the background
phosphorylation enrichment values for the sequences below.
Number only, no unit.

These solved cases illustrate the format of a correct answer.
| biopolymer-sequence | meas-value |
| --- | --- |
| RLSELYLRRNP [CFAP410_Y68_R73P] | 0.477 |
| PLYSKYWPNHI [GREB1L_Y1560_R1558S] | 29.7 |

Exam item: What is its phosphorylation enrichment for EPHB2 (UniProt P29323)? Entry: ANSSFHSTRSA [NUMA1_Y1836_Y1836H]
Marked response: 0.51

Exam item: What is its phosphorylation enrichment for EPHB2 (UniProt P29323)? Entry: YGSGNYNVFGN [HNRNPA2B1_Y300_D302V]
Marked response: 0.797

Exam item: What is its phosphorylation enrichment for EPHB2 (UniProt P29323)? Entry: MVTSGYKAKMI [EFR3A_Y447_T451M]
Marked response: 0.528

Exam item: What is its phosphorylation enrichment for EPHB2 (UniProt P29323)? Entry: GFEEAYSVFKK [PAFAH1B1_Y28_YF]
Marked response: 0.379

Exam item: What is its phosphorylation enrichment for EPHB2 (UniProt P29323)? Entry: KVNKIYFPDFI [LIG3_Y767_YF]
Marked response: 0.399

Exam item: What is its phosphorylation enrichment for EPHB2 (UniProt P29323)? Entry: EHFSFYGMKAV [SLC15A2_Y61_R57H_YF]
Marked response: 0.601

Exam item: What is its phosphorylation enrichment for EPHB2 (UniProt P29323)? Entry: FIGCIYLYLTK [GARS1_Y414_R412C]
Marked response: 0.451

Exam item: What is its phosphorylation enrichment for EPHB2 (UniProt P29323)? Entry: VLALWYYYLTN [ZDHHC23_Y127_H132N]
Marked response: 0.851
